These measurements were taken from ChEMBL document CHEMBL4616693.

experiment: Microsomal stability in rat liver microsomes assessed as half life measured after 45 mins in presence of NADPH by LC-MS/MS analysis; type: ADME, Microsome
Readout Label: half-life (h)
// note: answer is a bare numeric in h

(Q) Give recorded half-life. `CC(=O)N[C@@H](CCCN)C(=O)NC(C)(C)C(N)=O`
(A) 2.83

----------
assay: Plasma concentration in CD1 mouse at 1 mg/kg, iv or 5 mg/kg, po measured after 2 hrs by LC-MS/MS analysis; format: ADME, organism-based
Readout Label: concentration at 2 h (nM)
// note: answer is a bare numeric in nM

(Q) Give recorded concentration at 2 h. `CC(=O)N[C@@H](CCCN)C(=O)NC(C)(C)C(N)=O`
(A) 2100
